A collection of sequences and their measured PBM binding z-score
- System: PPARg:RXRa 30nM:10nM, anti-RXR (NR concentration 30 nM, RXRa partner concentration 10 nM)
- experiment summary: PBM binding z-score (relative to random genomic background probes); higher = stronger binding; sequences stand for … in GC…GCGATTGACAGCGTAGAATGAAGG
// keep it numeric: no unit symbol after the value

# annotated cases, reported PBM binding z-score shown
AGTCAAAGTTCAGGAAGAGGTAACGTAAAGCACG    1.98
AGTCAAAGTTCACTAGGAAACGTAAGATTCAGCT    2.93
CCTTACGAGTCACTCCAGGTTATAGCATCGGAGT    -0.0643

Quick check: PBM binding z-score of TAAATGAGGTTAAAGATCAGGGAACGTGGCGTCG ?
5.89

Quick check: PBM binding z-score of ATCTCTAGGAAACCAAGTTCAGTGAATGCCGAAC ?
0.0428

Quick check: PBM binding z-score of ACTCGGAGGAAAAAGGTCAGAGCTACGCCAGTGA ?
1.2

Quick check: PBM binding z-score of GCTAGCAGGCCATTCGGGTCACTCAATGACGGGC ?
-0.392

Quick check: PBM binding z-score of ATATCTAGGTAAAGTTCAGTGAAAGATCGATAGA ?
2.95

Quick check: PBM binding z-score of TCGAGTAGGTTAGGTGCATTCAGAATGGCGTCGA ?
0.736

Quick check: PBM binding z-score of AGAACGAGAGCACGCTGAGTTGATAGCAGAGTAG ?
-0.701

Quick check: PBM binding z-score of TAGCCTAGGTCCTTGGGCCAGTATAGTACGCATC ?
-0.771

Quick check: PBM binding z-score of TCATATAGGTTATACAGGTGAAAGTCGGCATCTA ?
3.94

Quick check: PBM binding z-score of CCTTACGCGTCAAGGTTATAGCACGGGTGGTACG ?
-0.308

Quick check: PBM binding z-score of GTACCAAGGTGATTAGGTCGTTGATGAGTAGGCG ?
-0.00723

Quick check: PBM binding z-score of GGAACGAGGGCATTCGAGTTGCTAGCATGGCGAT ?
-0.435

Quick check: PBM binding z-score of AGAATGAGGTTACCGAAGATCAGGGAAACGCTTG ?
1.19

Quick check: PBM binding z-score of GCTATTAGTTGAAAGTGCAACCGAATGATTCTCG ?
1.24

Quick check: PBM binding z-score of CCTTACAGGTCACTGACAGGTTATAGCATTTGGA ?
2.1
